Reference for the values: patent US20170253581A1

target of assay: Myc/Max binding to DNA (Homo sapiens, UniProt P01106)
Sequence (P01106 whole entry): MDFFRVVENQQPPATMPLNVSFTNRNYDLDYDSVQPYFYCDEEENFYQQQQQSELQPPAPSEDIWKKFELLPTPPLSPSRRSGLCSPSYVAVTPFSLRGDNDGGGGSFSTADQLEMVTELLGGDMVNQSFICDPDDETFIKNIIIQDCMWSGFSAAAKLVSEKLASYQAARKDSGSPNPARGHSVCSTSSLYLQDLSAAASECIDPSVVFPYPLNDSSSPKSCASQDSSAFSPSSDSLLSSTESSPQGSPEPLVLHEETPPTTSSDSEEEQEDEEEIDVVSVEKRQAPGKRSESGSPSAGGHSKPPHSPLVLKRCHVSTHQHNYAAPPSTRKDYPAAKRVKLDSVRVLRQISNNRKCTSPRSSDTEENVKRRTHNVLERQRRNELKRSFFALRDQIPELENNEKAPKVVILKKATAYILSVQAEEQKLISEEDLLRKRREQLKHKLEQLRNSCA
method description: Electrophoretic mobility shift assay (EMSA) of Myc/Max binding to DNA
Format: biochemical
assay context: EMSA, 100 uM test compound; read-out: Bound DNA (%) (100uM)
Give remaining activity at 100 µM for every item shown.
Answer format: numeric, % implied, no suffix.

// recorded remaining activity at 100 µM for Cn1cc(-c2cccnc2)c(-c2ccc(OCc3ccc(Cl)cc3)cc2O)n1 [compound 0198321] : 96

For this compound ( Oc1cc(OCc2ccc(Cl)cc2)ccc1-c1n[nH]c(C(F)(F)F)c1-c1ccccc1 [compound 0198295] ), measured remaining activity at 100 µM is 0

remaining activity at 100 µM reading for CCc1ccc(Oc2c(-c3ccc(OCCc4ccc(Cl)cc4)cc3O)nn(C)c2C(F)(F)F)cc1 [compound 0196356] : 68

The compound Oc1cc(Nc2ccc(F)c(F)c2)ccc1-c1cc(C(F)(F)F)[nH]n1 [compound 0200559] showed remaining activity at 100 µM equal to 39

###

target of assay: Myc/Max binding to DNA (Homo sapiens, UniProt P01106)
method description: Electrophoretic mobility shift assay (EMSA) of Myc/Max binding to DNA
Type: biochemical
assay context: EMSA, 100 uM test compound; read-out: Bound DNA (%) (100uM)
I'd be grateful if you could share measured remaining activity at 100 µM for these entries.
Give just the number in %; leave the unit off.

Briefly, remaining activity at 100 µM measured for Cc1cc(C)c(-c2c[nH]nc2-c2ccc(OCc3ccc(Cl)cc3)cc2O)c(C)c1 : 35

Reported remaining activity at 100 µM ( Cc1[nH]nc(-c2ccc(OCc3ccc(Cl)cc3)cc2O)c1-c1ccccc1 ) = 88

The reported value for FC(F)(F)c1cc2n(n1)-c1ccccc1Oc1cc(OCc3ccc(Cl)cc3)ccc1-2 in terms of remaining activity at 100 µM is 100

Reported remaining activity at 100 µM of COc1cccc(COc2ccc(-c3n[nH]cc3Oc3cc(C)ccc3C)c(O)c2)c1 : 81

###

target of assay: Myc/Max binding to DNA (Homo sapiens, UniProt P01106)
method description: Electrophoretic mobility shift assay (EMSA) of Myc/Max binding to DNA
Assay type: biochemical
assay context: EMSA, 100 uM test compound; read-out: Bound DNA (%) (100uM)
value type: remaining activity at 100 µM (%)
Field format: number, assumed %, no unit text.

GET /value?item= Cn1nc(-c2ccc(OCc3ccc(Cl)cc3)cc2O)cc1C(F)(F)F &field=remaining activity at 100 µM returns 76

The compound listed as COc1cccc(-c2c(-c3ccc(OCc4ccc(Cl)cc4)cc3O)nn(C)c2C)c1 shows remaining activity at 100 µM equal to 104

The compound listed as Oc1cc(OCc2ccc(Cl)cc2)ccc1-c1n[nH]cc1Oc1ccccc1Cl shows remaining activity at 100 µM equal to 48

The compound CCc1ccc(Oc2c(-c3ccc(Oc4ccc(Cl)cc4)cc3O)n[nH]c2C(F)(F)F)cc1 showed remaining activity at 100 µM equal to 8

Entry Cn1nc(-c2ccc(O)cc2O)c(-c2cc(C(F)(F)F)cc(C(F)(F)F)c2)c1C(F)(F)F — recorded remaining activity at 100 µM = 105

Data point: COc1ccc(-c2c(-c3ccc(OCc4ccc(Cl)cc4)cc3O)nn(C)c2C(F)(F)F)cc1 ; remaining activity at 100 µM = 35

Form: compound = Cc1ccc(C)c(Oc2c[nH]nc2-c2ccc(OCc3ccc(Cl)cc3)cc2O)c1 ; remaining activity at 100 µM = 59

Short answer for Cn1nc(C(F)(F)F)c(-c2ccc(C(F)(F)F)cc2Cl)c1-c1ccc(OCc2ccc(Cl)cc2)cc1O : remaining activity at 100 µM was 18

remaining activity at 100 µM for Cc1cc(C)cc(-c2cnn(C)c2-c2ccc(OCc3ccc(Cl)cc3)cc2O)c1 is 85

remaining activity at 100 µM recorded for this compound, COc1ccc(-c2c[nH]nc2-c2ccc(OCc3ccc(Cl)cc3)cc2O)cc1 , is 98

Recorded result, Oc1ccc(-c2n[nH]c(C(F)(F)F)c2-c2cc(C(F)(F)F)cc(C(F)(F)F)c2)c(O)c1 , remaining activity at 100 µM: 8

// remaining activity at 100 µM value for Cc1cc(C)c(-c2cn(C)nc2-c2ccc(OCc3ccc(Cl)cc3)cc2O)c(C)c1 : 101

The compound listed as CCc1[nH]nc(-c2ccc(OCc3ccc(Cl)cc3)cc2O)c1-c1cccc(OC)c1 shows remaining activity at 100 µM equal to 105

Item: CCc1ccc(Oc2c(-c3ccc(OCc4ccc(Cl)cc4)cc3O)n[nH]c2C(F)(F)F)cc1 | remaining activity at 100 µM: 36

Form field remaining activity at 100 µM, entry CN/N=C(\C)c1ccc(-c2c(C(F)(F)F)nn(C)c2-c2ccc(OCc3ccc(Cl)cc3)cc2O)cc1 : 56

The compound listed as Cn1nc(C(F)(F)F)c(-c2ccccc2)c1-c1ccc(OCc2ccc(Cl)cc2)cc1O shows remaining activity at 100 µM equal to 74

remaining activity at 100 µM in this record for CCc1ccc(Oc2c[nH]nc2-c2ccc(OCc3cnn(-c4ccccc4)c3)cc2O)cc1 : 79

Lookup result for Cc1cc(C)cc(-c2cn(C)nc2-c2ccc(OCc3ccc(Cl)cc3)cc2O)c1 ; measured remaining activity at 100 µM: 104

The reported remaining activity at 100 µM of the compound CCc1c(C(F)(F)F)n[nH]c1-c1ccc(OCc2ccc(Cl)cc2)cc1O was 78

Lab note: measured remaining activity at 100 µM of Oc1cc(OCc2ccc(Cl)cc2)ccc1-c1n[nH]c(C(F)(F)F)c1-c1cccnc1 was 79

Kindly note the recorded remaining activity at 100 µM for Cn1nc(-c2ccc(N)cc2O)cc1C(F)(F)F , which is 101

# compound Oc1cc(OCc2ccc(Cl)cc2)ccc1-c1n[nH]c(C(F)(F)F)c1-c1cccc(C(F)(F)F)c1 ; its remaining activity at 100 µM = 77

Looking up COc1ccc(-c2c(C)nn(C)c2-c2ccc(OCc3ccc(Cl)cc3)cc2O)cc1 , I found its remaining activity at 100 µM recorded as 105

Lab book: remaining activity at 100 µM of Oc1ccc(OCc2ccc(Cl)cc2)cc1-c1cc(C(F)(F)F)n[nH]1 noted as 102

Briefly, remaining activity at 100 µM measured for Cn1nc(-c2ccc(OCc3ccc(Cl)cc3)cc2O)c(-c2cccc(C#N)c2)c1C(N)=O : 9

Data point: Cn1nc(C(F)(F)F)c(-c2ccc(F)c(C(F)(F)F)c2)c1-c1ccc(OCc2ccc(Cl)cc2)cc1O ; remaining activity at 100 µM = 60

// sample COc1cccc(COc2ccc(-c3nn(C)cc3Oc3cc(C)ccc3C)c(O)c2)c1 , its remaining activity at 100 µM was 136

Recorded result, Oc1cc(OCc2ccc(Cl)cc2)ccc1-c1n[nH]c(C(F)(F)F)c1Oc1cccc(F)c1 , remaining activity at 100 µM: 43

// recorded remaining activity at 100 µM for Cn1nc(-c2ccc(OCc3ccc(Cl)cc3)cc2O)c(-c2ccc(C#N)cc2)c1C(F)(F)F : 71

The measured remaining activity at 100 µM associated with CCc1[nH]nc(-c2ccc(OCc3ccc(Cl)cc3)cc2O)c1-c1ccccc1 reads 105

response.value for Cn1nc(C(F)(F)F)c(-c2ccc(C(F)(F)F)cc2)c1-c1ccc(OCc2ccc(Cl)cc2)cc1O (field: remaining activity at 100 µM) = 92

###

target of assay: Myc/Max binding to DNA (Homo sapiens, UniProt P01106)
method description: Electrophoretic mobility shift assay (EMSA) of Myc/Max binding to DNA
Format: biochemical
assay context: EMSA, 50 uM test compound; read-out: Bound DNA (%) (50uM)
Could you please report measured remaining activity at 50 µM for the items listed next?
Reply with just the number (in %).

Field remaining activity at 50 µM (entry Cn1nc(-c2ccc(Nc3ccc(C(N)=O)cc3)cc2O)cc1C(F)(F)F ) reads 103

Kindly note the recorded remaining activity at 50 µM for Oc1cc(Nc2ccc(-n3ccnc3)cc2)ccc1-c1cc(C(F)(F)F)[nH]n1 , which is 89

For Oc1ccccc1C1=NNC(c2ccccc2)C1 (centres unmarked) the molecule record lists remaining activity at 50 µM as 102

For reference, reported remaining activity at 50 µM for Oc1cc(Nc2ccccn2)ccc1-c1cc(C(F)(F)F)[nH]n1 stands at 112

Lookup result for Cn1nc(-c2ccc(OCc3ccc(Cl)cc3)cc2O)c(-c2ccc(C(F)(F)F)c(Cl)c2)c1C(F)(F)F ; measured remaining activity at 50 µM: 82

// remaining activity at 50 µM lookup, molecule = Cn1nc(C(F)(F)F)cc1-c1ccc(OCc2ccc(Cl)cc2)cn1 , result: 98

Documented remaining activity at 50 µM of CCCc1c(C(F)(F)F)n[nH]c1-c1ccc(OCc2ccc(Cl)cc2)cc1O : 93

For record Oc1cc(Nc2ccc3c(c2)OCO3)ccc1-c1cc(C(F)(F)F)[nH]n1 the listed remaining activity at 50 µM is 91

Form: molecule = Cn1nc(-c2ccc(Nc3ccc(Cl)cc3)cc2O)cc1C(F)(F)F ; remaining activity at 50 µM = 92

So, Cn1nc(C(F)(F)F)cc1-c1ccc(NCc2ccc(Cl)cc2)cn1 ? Its remaining activity at 50 µM was 94

Briefly, remaining activity at 50 µM measured for Nc1ccc(-c2cc(C(F)(F)F)[nH]n2)c(O)c1 : 107

Quick note, remaining activity at 50 µM for Oc1cc(Nc2ccc(Cl)cc2)ccc1-c1cc(C(F)(F)F)[nH]n1 landed at 73

Value of remaining activity at 50 µM reported for the molecule Oc1cc(OCc2ccc(Cl)cc2)ccc1-c1cc(C(F)(F)F)nc(-c2cc(C(F)(F)F)cc(C(F)(F)F)c2)n1 is 91

The recorded remaining activity at 50 µM for entry Cn1nc(-c2ccc(N)cc2O)cc1C(F)(F)F equals 100

The molecule Cn1nc(C(F)(F)F)c(-c2cc(C(F)(F)F)cc(C(F)(F)F)c2)c1-c1ccc(O)cc1O showed remaining activity at 50 µM equal to 88

GET /value?item= Cn1nc(-c2ccc(OCc3ccc(Cl)cc3)cc2O)c(-c2cccc(C(F)(F)F)c2)c1C(F)(F)F &field=remaining activity at 50 µM returns 77

Measured remaining activity at 50 µM, Cn1nc(-c2ccc(NCc3ccc(Cl)cc3)cc2O)cc1C(F)(F)F : 99
